targetOrSystem: recombinant human GR (Homo sapiens, UniProt P04150)
Construct: purchased Panvera/Invitrogen P2812 (kit P2893)
Sequence (P04150 whole entry): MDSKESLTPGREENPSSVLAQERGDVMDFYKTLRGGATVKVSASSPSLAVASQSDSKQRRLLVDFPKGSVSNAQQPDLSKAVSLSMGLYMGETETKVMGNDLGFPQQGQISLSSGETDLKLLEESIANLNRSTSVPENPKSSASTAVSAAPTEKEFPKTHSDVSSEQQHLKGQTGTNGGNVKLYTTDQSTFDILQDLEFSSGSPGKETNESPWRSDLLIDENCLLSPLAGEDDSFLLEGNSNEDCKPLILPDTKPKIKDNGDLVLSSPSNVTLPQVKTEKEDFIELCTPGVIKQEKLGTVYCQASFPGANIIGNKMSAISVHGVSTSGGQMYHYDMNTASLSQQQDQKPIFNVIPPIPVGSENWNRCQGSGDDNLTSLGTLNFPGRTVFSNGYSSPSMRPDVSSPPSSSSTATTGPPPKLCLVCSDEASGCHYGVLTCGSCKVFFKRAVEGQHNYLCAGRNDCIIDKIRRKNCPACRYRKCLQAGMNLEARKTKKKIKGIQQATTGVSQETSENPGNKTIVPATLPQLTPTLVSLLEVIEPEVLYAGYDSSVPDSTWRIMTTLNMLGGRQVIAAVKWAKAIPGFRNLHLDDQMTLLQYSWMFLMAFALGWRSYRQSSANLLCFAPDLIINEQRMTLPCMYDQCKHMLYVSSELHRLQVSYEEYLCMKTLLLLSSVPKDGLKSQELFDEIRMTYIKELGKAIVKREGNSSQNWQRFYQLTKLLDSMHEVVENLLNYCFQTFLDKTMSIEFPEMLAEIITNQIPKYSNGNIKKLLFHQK
protocolNotes: Human Glucocorticoid Receptor (GR) Assay (fluorescence polarization, Panvera/Invitrogen kit)
Type: binding
conditionLabel: fluorescence polarization; GS Red tracer; 2 hours at room temperature; 100% control 10 μM Dexamethasone; read-out: Inhibition of GR binding, IC50
Decide using IC50 alone. Strictly below 4 nM: 1. Equal to or above 4 nM: -1.

Known results for molecules:
molecule: CCC(=O)O[C@]1(C(=O)SCC(=O)OC)CC[C@H]2[C@@H]3CCC4=Cc5c(cnn5-c5ccc(F)cc5)C[C@]4(C)[C@H]3[C@@H](O)C[C@@]21C
classLabel: 1
//
molecule: C[C@]12Cc3cnn(-c4ccccn4)c3C=C1CC[C@@H]1[C@@H]2[C@@H](O)C[C@@]2(C)[C@H]1CC[C@]2(OC(=O)C1CC1)C(=O)OCC#N
classLabel: 1

Exercise: Is it true that IC50 reported for `C[C@]12Cc3cnn(-c4ccc(F)c(CF)c4)c3C=C1CC[C@@H]1[C@@H]2[C@@H](O)C[C@@]2(C)[C@H]1CC[C@]2(OC(=O)c1ccco1)C(=O)SCC#N` is less than 4 nM?
Key: -1

Exercise: Is it true that IC50 reported for `CCC(=O)O[C@]1(C(=O)SCCF)CC[C@H]2[C@@H]3CCC4=Cc5c(cnn5-c5ccc(F)cc5)C[C@]4(C)[C@H]3[C@@H](O)C[C@@]21C` is less than 4 nM?
Key: -1

Exercise: Is it true that IC50 reported for C[C@]12Cc3cnn(-c4ccc(F)cc4)c3C=C1CC[C@@H]1[C@@H]2[C@@H](O)C[C@@]2(C)[C@H]1CC[C@]2(OC(=O)c1ccco1)C(=O)SCC(O)CO (some centres unmarked) is less than 4 nM?
Key: -1

Exercise: Is it true that IC50 reported for `C[C@]12Cc3cnn(-c4ccc(F)nc4)c3C=C1CC[C@@H]1[C@@H]2[C@@H](O)C[C@@]2(C)[C@H]1CC[C@]2(OC(=O)c1cocn1)C(=O)SCC#N` is less than 4 nM?
Key: 1

Exercise: Is it true that IC50 reported for `CNC(=O)[C@@]1(OC(=O)c2ccco2)CC[C@H]2[C@@H]3CCC4=Cc5c(cnn5-c5ccc(F)cc5)C[C@]4(C)[C@H]3[C@@H](O)C[C@@]21C` is less than 4 nM?
Key: 1

Exercise: Is it true that IC50 reported for `CC(C)CC(=O)O[C@]1(C(=O)SCC#N)CC[C@H]2[C@@H]3CCC4=Cc5c(cnn5-c5ccc(F)cc5)C[C@]4(C)[C@H]3[C@@H](O)C[C@@]21C` is less than 4 nM?
Key: -1

Exercise: Is it true that IC50 reported for `CCSC(=O)[C@@]1(OC(=O)c2scnc2C)CC[C@H]2[C@@H]3CCC4=Cc5c(cnn5-c5ccc(F)cc5)C[C@]4(C)[C@H]3[C@@H](O)C[C@@]21C` is less than 4 nM?
Key: -1

Exercise: Is it true that IC50 reported for `Cc1ccoc1C(=O)O[C@]1(C(=O)SCCO)CC[C@H]2[C@@H]3CCC4=Cc5c(cnn5-c5ccc(F)cc5)C[C@]4(C)[C@H]3[C@@H](O)C[C@@]21C` is less than 4 nM?
Key: -1

Exercise: Is it true that IC50 reported for `CSCSC(=O)[C@@]1(OC(=O)c2ccco2)CC[C@H]2[C@@H]3CCC4=Cc5c(cnn5-c5ccc(F)cc5)C[C@]4(C)[C@H]3[C@@H](O)C[C@@]21C` is less than 4 nM?
Key: -1
